# Tested on: HOP-62 NSCLC
# experiment.description: NCI-60 one-dose screen, 48 h (100 = growth as untreated, 0 = no growth, -100 = all killed)
# measurement.setup: 10 µM unless noted
Compounds without any hit were thinned out: in the full panel of roughly 83,000, 20% have a hit.
Measured growth by item
property.name: growth (%)

compound	assay.system	result.units	val
COc1nc(N(C)O)nc(N(C)O)n1	HOP-62 NSCLC	%	26.6
COc1cc(OC)cc(C2CC(=O)Nc3c2c(C)nn3-c2nc3ccccc3[nH]2)c1 (centres undefined)	HOP-62 NSCLC	%	-44.2
CCCCCCCCCCN(CCCCCCCCCC)CC(=O)c1ccc2cc(Br)c3ccccc3c2c1	HOP-62 NSCLC	%	96.4
Cc1ccc(/C=C/c2c(C(=O)/C=C/c3ccc(C(F)(F)F)cc3)c(C)nc3ccccc23)cc1	HOP-62 NSCLC	%	-37.2
Cc1ccc(CCC(=O)Nc2ncc(Cc3cc(Cl)ccc3Cl)s2)o1	HOP-62 NSCLC	%	35.6
COC1=CC(=O)C[C@@H](C)[C@]12Oc1c(Cl)c(OC)cc(OC)c1C2=O	HOP-62 NSCLC	%	88.3
COc1cc(C(=O)/C=C/c2c(-c3ccc(F)cc3)nc3sc(C)cn23)cc(OC)c1OC	HOP-62 NSCLC	%	79
CCCCCCCCCCCCCCCCCCOc1ccccc1CC(=O)OCCC[N+](C)(C)C	HOP-62 NSCLC	%	67.1
O=C(COc1ccc(/C=C2\Oc3ccccc3C2=O)cc1)Nc1nc2ccccc2s1	HOP-62 NSCLC	%	73.8
COC(=O)[C@]12CC[C@@H](C)[C@H](C)[C@@H]1C1=CC[C@@H]3[C@@]4(C)C(C=O)=C[C@@](C)(COC(=O)c5ccco5)C4=CC[C@@]3(C)[C@]1(C)CC2	HOP-62 NSCLC	%	7.71
Cc1c(C(=O)OC(=NC2CCCCC2)NC2CCCCC2)sc2c1c(=O)nc1c(C#N)n[nH]n12	HOP-62 NSCLC	%	89.5
N#Cc1c(-c2ccccn2)[nH]c(=S)[nH]c1=O	HOP-62 NSCLC	%	99.9
O=c1ssc(Cl)c1-c1ccccc1	HOP-62 NSCLC	%	98.1
O=C(CCc1nnc(CN(c2ccccc2)c2ccccc2)o1)c1nc2ccccc2[nH]1	HOP-62 NSCLC	%	89.1
C=C(C)[C@@H]1CC[C@]2(C(=O)NC3CCCCC3)CC[C@]3(C)[C@H](CC[C@@H]4[C@@]5(C)CCCNC(C)(C)[C@@H]5CC[C@]43C)[C@@H]12	HOP-62 NSCLC	%	80.4
NC(N)=Nc1nc2ccccc2n2c1nc1ccccc12	HOP-62 NSCLC	%	40.4
NCCCNc1nc2ccccc2c2c(=O)c3cccc(Cl)c3sc12	HOP-62 NSCLC	%	19.3
CCc1ccccc1-n1c(N)c(C#N)c(-c2ccc(N(C)C)cc2)c(C#N)c1=O	HOP-62 NSCLC	%	106
O=C(CC(SCc1ccccc1)c1ccccc1)c1ccccc1 (centres undefined)	HOP-62 NSCLC	%	91.7
COc1cc(Cn2ncc3ccc(NC(=O)c4cc5ccccc5oc4=N)cc32)cc(OC)c1OC	HOP-62 NSCLC	%	64.9
CCOc1ccccc1-n1c(CN2CCN(C(=O)COc3ccc(CNCCCCCCN4C5CCCC4CC(OC(=O)Nc4cc(C)ccc4OC)C5)cc3)CC2)nc2ccccc2c1=O (centres undefined)	HOP-62 NSCLC	%	-92
COc1ccc(NC(=O)CSc2nc(C)c(C(C)=O)n2-c2ccc(Cl)cc2)cc1	HOP-62 NSCLC	%	88.5
O=C1/C(=C2/C=Nc3ccccc32)N(O)c2ccccc21	HOP-62 NSCLC	%	95.6
COc1ccc(OC)c(-c2c(C#N)c(-c3ccc(Cl)cc3)nc3c2c(-c2ccccc2)nn3-c2ccccc2)c1	HOP-62 NSCLC	%	99.3
COc1ccc(C(=O)/C=C/c2c(C(F)(F)F)nc3sccn23)cc1OC	HOP-62 NSCLC	%	25
C[C@@H]1N=C(c2ccc3ccccc3n2)Nc2nc3ccccn3c2C1=O	HOP-62 NSCLC	%	75.1
COc1ccc(-c2nc(SC(C)C)nc(NNC(N)=S)c2C#N)cc1	HOP-62 NSCLC	%	63.7
Cc1ccc(/C=C/c2c(C(=O)/C=C/c3ccc(Cl)cc3)c(C)nc3ccccc23)cc1	HOP-62 NSCLC	%	3.89
O=C(Nc1cccc(Cl)c1)c1cc(N=Nc2ccc([N+](=O)[O-])cc2Cl)ccc1O	HOP-62 NSCLC	%	72.9
Cc1cc(NCc2cc(Nc3ccnc4cc(Cl)ccc34)ccc2F)nc(N2CCCC2)n1	HOP-62 NSCLC	%	-13.3
COc1ccc2[nH]c(O)c(/C=c3/cc4c(c(-c5ccc(F)c(OC)c5)n3)=Nc3ccccc3-4)c2c1	HOP-62 NSCLC	%	88.6
COC(=O)[C@]12CC[C@@H](C)[C@H](C)[C@@H]1C1=CC[C@@H]3[C@@]4(C)C(C=O)=C[C@@](C)(CO)[C@@H]4[C@H](O)C[C@@]3(C)[C@]1(C)CC2	HOP-62 NSCLC	%	11.9
C#CCOc1nc(C)cc(C)c1C#N	HOP-62 NSCLC	%	92.2
Cc1cccc(-c2nc(N(C)c3ccc4ncsc4c3)c3ccccc3n2)n1	HOP-62 NSCLC	%	69.7
Cn1c(-c2c(N)n(Cc3cccnc3)c3nc(C#N)c(C#N)nc23)nc2ccccc21	HOP-62 NSCLC	%	95.3
O=C(O)CN1C(=O)CCC1=O	HOP-62 NSCLC	%	97.1
N[C@@H](CCCCNCC(=O)O)C(=O)O	HOP-62 NSCLC	%	101
CN(C)c1ccc(/C=C/C(=O)c2cccc(Nc3nc(Nc4ccccc4)nc(Nc4ccccc4)n3)c2)cc1	HOP-62 NSCLC	%	86.5
CCCCN(CCCC)CC(C)(C)C(O)c1ccc(OC)c2ccccc12 (centres undefined)	HOP-62 NSCLC	%	73.7

###

Measured growth accompanies every entry in the list below.
# Test system: UO-31 renal
# experiment.description: NCI-60 one-dose screen, 48 h (100 = growth as untreated, 0 = no growth, -100 = all killed)
# measurement.setup: 10 µM unless noted
About 83,000 compounds went through this panel and 20% of them were active in at least one assay; those are over-represented in the sample as a whole.
property.name: growth (%)

compound	assay.system	property.name	val
O=C1CC(N2C(=O)/C(=C/C(Cl)=C\c3ccc([N+](=O)[O-])cc3)SC2=S)C(=O)N1c1ccc(O)cc1 (stereo not drawn)	UO-31 renal	growth	-75.2
O=C(NCCNc1cc(-c2cn(-c3ccccc3)nc2-c2cccc(O)c2)ccn1)Nc1ccccc1	UO-31 renal	growth	58.6
CS(=O)c1cccc(-c2ccc3nc(N)n(-c4ccc(C(F)(F)F)cc4)c(=O)c3c2)c1 (stereo not drawn)	UO-31 renal	growth	75.8
Nc1n[nH]c2cc(F)c([C@@H]3Nc4c(F)cc5[nH]ncc5c4[C@H]4C5CCC(C5)[C@@H]34)cc12 (stereo partly drawn)	UO-31 renal	growth	36.5
NC(=O)c1ccc[n+]([C@@H]2O[C@H](COP(=O)([O-])OP(=O)(O)OC[C@H]3O[C@@H](n4cnc5c(N)ncnc54)[C@H](O)[C@@H]3O)[C@@H](O)[C@H]2O)c1	UO-31 renal	growth	105
C=CC(=O)Nc1cccc(Oc2nccc(Nc3nnc(C4CC4)s3)n2)c1	UO-31 renal	growth	72.4
O=C(NCCCNc1cc(-c2cn(-c3ccccc3)nc2-c2cccc(O)c2)ccn1)c1cccc(O)c1	UO-31 renal	growth	85.8
COc1cccc(-c2nn(-c3ccccc3)cc2-c2ccnc(NCCCNC(=O)c3ccc(F)cc3)c2)c1	UO-31 renal	growth	40.5

###

# System: NCI-H522 lung
# experiment.description: NCI-60 one-dose screen, 48 h
# measurement.setup: 10 µM unless noted
# Experimental: Growth inhibition of the NCI-H522 human Non-Small Cell Lung tumor cell line is measured as a screen for anti-cancer activity. Cells are grown in 96 well plates and exposed to the test compound for 48 hours. Compounds are tested at a single concentration, which is 10^-5 M for most compounds. The reported endpoint is percent growth (GI% or GIPRCNT), where numbers from 0 - 100% represent growth inhibition, and numbers from -100% - 0 represent cell death. […]
The panel holds about 83,000 compounds, 20% with a hit somewhere; the sample as a whole holds those more often. Activity calls are given as the source filed them. How the source made its calls: active means growth percent below 10; inactive means the rest.
Outcomes: active, inactive

molecule	assay.system	label.class
Cc1ccc(-c2c(-c3ccccc3)c(=O)oc3ccc(C)cc23)cc1	NCI-H522 lung	inactive
CCCCCCCCCCCCCCCCCCOc1ccccc1CC(=O)OCCC[N+](C)(C)C	NCI-H522 lung	inactive
CCc1c2c(nc3ccc(OC(=O)NCc4ccc(B5OC(C)(C)C(C)(C)O5)cc4)cc13)-c1cc3c(c(=O)n1C2)COC(=O)[C@]3(O)CC	NCI-H522 lung	active
COc1ccc(/C=C/c2c(C(=O)/C=C/c3ccc(F)cc3)c(C)nc3ccccc23)cc1	NCI-H522 lung	inactive
CC(=O)OC1CCC2(C)C(=CC3C4CCC(=O)C4(C)CCC32)C1 (centres undefined)	NCI-H522 lung	inactive
O=C(/C=C/c1ccc(Cl)nc1)c1ccc(Cl)cc1Cl	NCI-H522 lung	inactive
C=C(C)[C@@H]1CC[C@]2(C)[C@H](CC=C3[C@@H]4CC(C)(C)CC[C@]4(C(N)=O)CC[C@]32C)[C@@]1(C)CCC#N	NCI-H522 lung	active
CCOc1ccccc1-n1c(CN2CCN(C(=O)COc3ccc(CNCCCCCCN4C5CCCC4CC(OC(=O)Nc4cc(C)ccc4OC)C5)cc3)CC2)nc2ccccc2c1=O (centres undefined)	NCI-H522 lung	active
COc1cccc(-c2nn(-c3ccccc3)cc2-c2ccnc(NCCNC(=O)Nc3cccc(C(F)(F)F)c3)c2)c1	NCI-H522 lung	active
O=C(NC(CSSCC(NC(=O)c1ccccc1)C(=O)O)C(=O)O)c1ccccc1 (centres undefined)	NCI-H522 lung	inactive
CC(C)C(=O)Nc1n[nH]c2cc(-c3cccc(NS(=O)(=O)C4CC4)c3)ccc12	NCI-H522 lung	inactive
O=C(COc1ccc(/C=C2\Oc3ccccc3C2=O)cc1)Nc1nc2c(s1)CCCC2	NCI-H522 lung	active
O=C(Cc1ccc(F)c(F)c1)Nc1cc(C2(C(F)(F)F)CC2)nn1Cc1ccccc1	NCI-H522 lung	active
C#Cc1cccc(NC(=O)c2ccc(NC(=O)CCl)cc2)c1	NCI-H522 lung	active
O=C(NCCCNc1cc(-c2cn(-c3ccccc3)nc2-c2cccc(O)c2)ccn1)c1cccc(O)c1	NCI-H522 lung	inactive
COc1ccc(N2CCN(c3nc(-c4cc(OC)c(OC)c(OC)c4)nc4ccccc34)CC2)cc1	NCI-H522 lung	inactive
COc1cc(C(=O)/C=C/c2c(C(F)(F)F)nc3sccn23)cc(OC)c1OC	NCI-H522 lung	active
CNS(=O)(=O)c1n[nH]nc1-c1cc(C(C)(C)C)c(O)c(C(C)(C)C)c1	NCI-H522 lung	inactive
N#C/C(=C\c1ccc(Br)cc1)n1nnc2cc(F)c(F)cc21	NCI-H522 lung	inactive
